studyTarget: recombinant human PAD2 (human, UniProt Q9Y2J8 1-665)
Sequence (Q9Y2J8 whole entry): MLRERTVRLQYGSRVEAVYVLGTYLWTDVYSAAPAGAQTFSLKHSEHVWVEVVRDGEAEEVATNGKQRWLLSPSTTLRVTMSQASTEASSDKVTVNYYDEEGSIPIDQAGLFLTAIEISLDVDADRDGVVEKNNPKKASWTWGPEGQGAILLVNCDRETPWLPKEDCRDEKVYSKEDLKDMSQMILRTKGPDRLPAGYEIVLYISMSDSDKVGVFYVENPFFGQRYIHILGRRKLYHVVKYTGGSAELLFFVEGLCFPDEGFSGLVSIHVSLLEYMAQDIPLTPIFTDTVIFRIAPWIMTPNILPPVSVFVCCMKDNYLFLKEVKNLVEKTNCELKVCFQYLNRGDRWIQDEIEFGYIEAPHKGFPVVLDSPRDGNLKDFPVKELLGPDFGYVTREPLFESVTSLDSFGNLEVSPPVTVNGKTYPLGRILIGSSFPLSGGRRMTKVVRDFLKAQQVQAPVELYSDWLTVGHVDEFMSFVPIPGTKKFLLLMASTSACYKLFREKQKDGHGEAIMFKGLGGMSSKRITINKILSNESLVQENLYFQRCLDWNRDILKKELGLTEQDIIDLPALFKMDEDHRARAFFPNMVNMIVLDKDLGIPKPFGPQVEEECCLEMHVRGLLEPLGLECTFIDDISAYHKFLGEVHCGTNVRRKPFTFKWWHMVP
measurementDescription: cell-based or functional assay
Square brackets hold non-standard residues; d marks the D form. * marks the point of attachment. Orn(fluoroacetimidoyl) = N=C(CF)NCCC[C@H](N)C(=O)O; 2Naphthylsulfonyl = O=S(=O)(c1ccc2ccccc2c1)*; AEEA = NCCOCCOCC(=O)O
measurementName: Inhibition of PAD2: value at 80 µM inhibitor (0 µM: 74) (%)
Expressed in %, but write only the number.

Here are 3 binders together with their reported answers.
INSERT INTO assay_data (binder, readingunit, reportedmeasurement) VALUES
  ('2Naphthylsulfonyl-KFD[Orn(fluoroacetimidoyl)]DFI[AEEA]-NH2 (SMILES CC[C@H](C)[C@H](NC(=O)[C@H](Cc1ccccc1)NC(=O)[C@H](CC(=O)O)NC(=O)[C@H](CCCNC(=N)CF)NC(=O)[C@H](CC(=O)O)NC(=O)[C@H](Cc1ccccc1)NC(=O)[C@H](CCCCN)NS(=O)(=O)c1ccc2ccccc2c1)C(=O)NCCOCCOCC(N)=O) [0837-27FA]', '%', 4),
  ('Ac-KFD[Orn(fluoroacetimidoyl)]DFI-NH2 (SMILES CC[C@H](C)[C@H](NC(=O)[C@H](Cc1ccccc1)NC(=O)[C@H](CC(=O)O)NC(=O)[C@H](CCCNC(=N)CF)NC(=O)[C@H](CC(=O)O)NC(=O)[C@H](Cc1ccccc1)NC(=O)[C@H](CCCCN)NC(C)=O)C(N)=O) [0743-58FA]', '%', 9),
  ('Ac-KFD[Orn(fluoroacetimidoyl)]DFI[AEEA]-NH2 (SMILES CC[C@H](C)[C@H](NC(=O)[C@H](Cc1ccccc1)NC(=O)[C@H](CC(=O)O)NC(=O)[C@H](CCCNC(=N)CF)NC(=O)[C@H](CC(=O)O)NC(=O)[C@H](Cc1ccccc1)NC(=O)[C@H](CCCCN)NC(C)=O)C(=O)NCCOCCOCC(N)=O) [0837-13FA]', '%', 11);

Now consider a different binder.
So what does the record say about Inhibition of PAD2: value at 80 µM inhibitor (0 µM: 74) for 2Naphthylsulfonyl-KFD[Orn(fluoroacetimidoyl)]DFI-NH2 [0837-29FA] ?
2

Where these numbers come from: patent US20110142868A1
